measurement.target: 17-beta-hydroxysteroid dehydrogenase type 3 (Rattus norvegicus)
Sequence (whole entry): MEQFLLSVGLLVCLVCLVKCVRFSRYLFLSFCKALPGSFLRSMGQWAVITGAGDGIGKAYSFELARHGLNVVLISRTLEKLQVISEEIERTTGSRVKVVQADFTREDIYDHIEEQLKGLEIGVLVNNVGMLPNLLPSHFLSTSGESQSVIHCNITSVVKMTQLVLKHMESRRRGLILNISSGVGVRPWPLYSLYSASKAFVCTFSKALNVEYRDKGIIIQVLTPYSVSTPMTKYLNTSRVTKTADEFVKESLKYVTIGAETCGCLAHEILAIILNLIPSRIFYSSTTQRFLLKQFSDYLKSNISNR
assay.info: Inhibition of 17beta-HSD3 in rat testes microsomes using [14C]-4-androstene-3,17-dione as substrate measured based on 4% of initial enzyme transformation at 1 uM after 2 hrs
condition.label: Testis

| structure | inhibition |
| --- | --- |
| CC(C)C[C@H]1C(=O)O[C@@]2(CC[C@@]3(C)[C@@H](CC[C@@H]4[C@@H]3CC[C@]3(C)C(=O)CC[C@@H]43)C2)CN1Cc1ccccc1 | 77.3% |
| CC(C)C[C@H]1NC[C@]2(CC[C@@]3(C)[C@@H](CC[C@@H]4[C@@H]3CC[C@]3(C)C(=O)CC[C@@H]43)C2)OC1=O | 50.2% |
| COC(=O)[C@@H](Cc1ccccc1)N1C[C@]2(CC[C@@]3(C)[C@@H](CC[C@@H]4[C@@H]3CC[C@]3(C)C(=O)CC[C@@H]43)C2)OC1=O | 74.3% |
| CC(C)C[C@@H]1C(=O)O[C@@]2(CC[C@@]3(C)[C@@H](CC[C@@H]4[C@@H]3CC[C@]3(C)C(=O)CC[C@@H]43)C2)CN1Cc1ccccc1 | 56.5% |
| C[C@]12CC[C@@]3(C[C@@H]1CC[C@@H]1[C@@H]2CC[C@]2(C)C(=O)CC[C@@H]12)CN(Cc1ccccc1)[C@H](Cc1ccccc1)C(=O)O3 | 61.7% |
| COC(=O)CN1C[C@]2(CC[C@@]3(C)[C@@H](CC[C@@H]4[C@@H]3CC[C@]3(C)C(=O)CC[C@@H]43)C2)OC1=O | 54.6% |

* * *

measurement.target: 17-beta-hydroxysteroid dehydrogenase type 3 (Rattus norvegicus)
Sequence (whole entry): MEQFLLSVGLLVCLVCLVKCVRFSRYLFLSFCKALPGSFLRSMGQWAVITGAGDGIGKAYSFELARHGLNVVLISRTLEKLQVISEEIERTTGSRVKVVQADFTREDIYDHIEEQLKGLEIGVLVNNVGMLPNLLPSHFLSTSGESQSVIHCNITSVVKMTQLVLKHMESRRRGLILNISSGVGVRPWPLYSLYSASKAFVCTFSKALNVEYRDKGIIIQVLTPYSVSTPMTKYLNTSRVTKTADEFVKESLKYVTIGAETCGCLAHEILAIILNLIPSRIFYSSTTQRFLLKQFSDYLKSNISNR
assay.info: Inhibition of 17beta-HSD3 in rat testes microsomes using [14C]-4-androstene-3,17-dione as substrate measured based on 33% of initial enzyme transformation at 10 uM after 2 hrs
condition.label: Testis
So basically: inhibition at 90% or higher? That is MET. Lower than 90%? That is NOT MET.

| structure | label.value |
| --- | --- |
| C[C@]12CC[C@@]3(C[C@@H]1CC[C@@H]1[C@@H]2CC[C@]2(C)C(=O)CC[C@@H]12)CN(Cc1ccc(-c2ccccc2)cc1)CC(=O)O3 | MET |
| C[C@]12CC[C@@]3(C[C@@H]1CC[C@@H]1[C@@H]2CC[C@]2(C)C(=O)CC[C@@H]12)CN(Cc1ccc(OCc2ccccc2)cc1)CC(=O)O3 | MET |
| O=C1OC2(CCCCC2)CN[C@H]1Cc1ccccc1 | NOT MET |
| O=C1OC2(CCCCC2)CN(Cc2ccccc2)[C@H]1Cc1ccccc1 | NOT MET |
| C[C@@H]1CN(S(=O)(=O)c2ccccc2C(F)(F)F)[C@@H](C)CN1C[C@@]1(O)CC[C@@]2(C)[C@@H](CC[C@@H]3[C@@H]2CC[C@]2(C)C(=O)CC[C@@H]32)C1 | MET |
